Measured values drawn from patent US10011607B2 for this set.

# subject-of-test: human mGlu4 receptor (Homo sapiens (Human), UniProt Q14833)
# Sequence (Q14833 33-912): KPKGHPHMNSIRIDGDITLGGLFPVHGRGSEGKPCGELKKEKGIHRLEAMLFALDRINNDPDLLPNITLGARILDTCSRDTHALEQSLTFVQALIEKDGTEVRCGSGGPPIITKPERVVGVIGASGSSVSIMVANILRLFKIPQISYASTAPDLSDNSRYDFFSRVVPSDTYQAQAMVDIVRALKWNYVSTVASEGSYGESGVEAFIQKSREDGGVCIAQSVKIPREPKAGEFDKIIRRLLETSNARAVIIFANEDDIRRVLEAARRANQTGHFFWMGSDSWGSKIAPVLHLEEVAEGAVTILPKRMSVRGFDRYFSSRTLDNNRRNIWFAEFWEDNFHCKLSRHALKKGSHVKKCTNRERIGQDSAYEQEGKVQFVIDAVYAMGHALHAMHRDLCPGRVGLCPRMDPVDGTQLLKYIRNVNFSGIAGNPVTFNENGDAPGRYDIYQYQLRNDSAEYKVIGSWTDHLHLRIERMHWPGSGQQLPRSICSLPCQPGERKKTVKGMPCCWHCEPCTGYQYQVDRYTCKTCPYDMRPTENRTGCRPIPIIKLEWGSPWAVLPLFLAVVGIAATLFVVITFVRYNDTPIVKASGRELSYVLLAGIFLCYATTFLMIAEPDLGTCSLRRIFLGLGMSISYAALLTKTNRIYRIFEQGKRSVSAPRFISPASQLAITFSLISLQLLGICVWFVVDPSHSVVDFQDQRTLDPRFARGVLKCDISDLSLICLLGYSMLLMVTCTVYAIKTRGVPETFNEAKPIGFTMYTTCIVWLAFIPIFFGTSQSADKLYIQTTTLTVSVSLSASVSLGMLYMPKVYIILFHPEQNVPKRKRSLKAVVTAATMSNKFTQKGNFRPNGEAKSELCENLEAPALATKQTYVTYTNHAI
# protocol-summary: Ca2+ mobilization in vitro assay on recombinant human mGlu4 expressed in HEK293 cells (PAM)
# Type: cell-based
# measurement-conditions: HEK293 cells, human mGlu4, in presence of EC20 of L-AP4; read-out: EC50 (nM) mGlu4PAM
Parameter EC50: see the listing below.
Field format: number, assumed nM, no unit text.

C[C@@]12CC(=O)N(c3c(F)cc(C#Cc4ccccc4)cc3F)C(=O)N1CCN(Cc1cccc(F)c1)C2=O [Example 90] ... 187

# lookup: EC50 of CC[C@@]12CC(=O)N(c3c(F)cc(C#Cc4ccccc4)cc3F)C(=O)N1CCN(c1cnn(C)c1)C2=O [Example 107]
104

# lookup: EC50 of CC12CC(=O)N(c3c(F)cc(C#Cc4ccccc4)cc3F)C(=O)N1CCN(c1ccnc(Cl)c1)C2=O (racemic) [Example 18]
114

# lookup: EC50 of C[C@@]12CC(=O)N(c3c(F)cc(C#Cc4ccccc4)cc3F)C(=O)N1CCN(c1cnc(OCc3ccccc3)nc1)C2=O [Example 41]
81
